Test system: HSV-1
experimental.details: Antiviral activity against HSV-1 by cytopathic (CPE) assay in Hep-2 cells
Format: cell-based, Herpes Simplex Virus 1
reported.conditions: Human alphaherpesvirus 1; anti-HSV-1 activity, CPE assay, Hep-2 cells, neutral red OD 540 nm, Reed-Muench
Entries and their IC50 values follow.

[
  {
    "molecule": "COc1ccc([C@@]2(O)c3c(ccc(/C=C/[C@@]4(C)CCC(C)(C)CO4)c3O)NC(=O)[C@@H]2OC)cc1",
    "IC50": "2 to 25 µM"
  },
  {
    "molecule": "CO[C@@H]1C(=O)Nc2ccc(/C=C/[C@]3(C)CC[C@@H](O)[C@@H](C)C3)c(O)c2[C@@]1(O)c1ccccc1",
    "IC50": "0.05 to 2 µM"
  },
  {
    "molecule": "C=C(C)[C@H]1CC[C@](C)(/C=C/c2ccc3c(c2O)[C@@](O)(c2ccccc2)[C@H](OC)C(=O)N3)O1",
    "IC50": "0.05 to 2 µM"
  },
  {
    "molecule": "COc1ccc([C@@]2(O)c3c(ccc(/C=C/C(C)=O)c3O)NC(=O)[C@@H]2OC)cc1",
    "IC50": "25 to 50 µM"
  },
  {
    "molecule": "COc1ccc([C@@]2(O)c3c(ccc(/C=C/[C@]4(C)CC[C@@H](O)C(C)(C)O4)c3O)NC(=O)[C@@H]2OC)cc1",
    "IC50": "2 to 25 µM"
  },
  {
    "molecule": "COc1ccc([C@@]2(O)c3c(ccc(/C=C/[C@@]4(C)OC(C)(C)[C@H]5C[C@H]54)c3O)NC(=O)[C@@H]2OC)cc1",
    "IC50": "2 to 25 µM"
  },
  {
    "molecule": "COc1ccc([C@]2(O)c3c(O)cccc3NC(=O)[C@H]2O)cc1",
    "IC50": "50 to 100 µM"
  },
  {
    "molecule": "COc1ccc([C@@]2(O)c3c(ccc(CC=C(C)C)c3O)NC(=O)[C@@H]2OC)cc1",
    "IC50": "25 to 50 µM"
  },
  {
    "molecule": "NC(=O)c1ncn([C@@H]2O[C@H](CO)[C@@H](O)[C@H]2O)n1 [Ribavirin, reference compound]",
    "IC50": "50 to 100 µM"
  },
  {
    "molecule": "COc1ccc([C@@]2(O)c3c(ccc(/C=C/C4(C)CCC(C)(C)C(O)O4)c3O)NC(=O)[C@@H]2OC)cc1 (some centres unmarked)",
    "IC50": "0.05 to 2 µM"
  },
  {
    "molecule": "COc1ccc([C@@]2(O)c3c(ccc(/C=C/[C@@]4(C)OC(C)(C)[C@@H]5C[C@@H]54)c3O)NC(=O)[C@@H]2OC)cc1",
    "IC50": "2 to 25 µM"
  },
  {
    "molecule": "COc1ccc(-c2c(O)c(=O)[nH]c3ccccc23)cc1",
    "IC50": "25 to 50 µM"
  },
  {
    "molecule": "C=C(C)/C=C/c1ccc2c(c1O)[C@](O)(c1ccc(OC)cc1)[C@@H](OC)C(=O)N2",
    "IC50": "25 to 50 µM"
  },
  {
    "molecule": "CO[C@@H]1C(=O)Nc2ccc(/C=C/[C@]3(C)CCC(=O)[C@@H](C)C3)c(O)c2[C@@]1(O)c1ccccc1",
    "IC50": "0.05 to 2 µM"
  },
  {
    "molecule": "CO[C@@H]1C(=O)Nc2ccc(/C=C/[C@@]3(C)CCC(=O)[C@@H](C)C3)c(O)c2[C@@]1(O)c1ccccc1",
    "IC50": "0.05 to 2 µM"
  },
  {
    "molecule": "COc1ccc([C@]2(O)c3ccccc3NC(=O)[C@H]2O)cc1",
    "IC50": "50 to 100 µM"
  },
  {
    "molecule": "O=c1[nH]c2ccccc2c(-c2ccccc2)c1O",
    "IC50": "25 to 50 µM"
  }
]
